Test system: E. coli 078
Assay type: cell-based, Escherichia coli
Non-standard residues stand in square brackets, D forms with d. Residues, ends and D or L forms follow the SMILES beside them. ξ: configuration not given here. *: point of attachment. 2Nal = N[C@@H](Cc1ccc2ccccc2c1)C(=O)O; Myristoyl = CCCCCCCCCCCCCC(=O)*; ξAhp(2) = CCCCCC(N)C(=O)O
parameter: MIC, E. coli 078 (µM)
Give the value in µM but do not write µM after it.

1. C[C@H](N)C(=O)N[C@@H](C)C(=O)N[C@@H](C)C(=O)N[C@@H](C)C(=O)N[C@@H](C)C(=O)N[C@@H](C)C(=O)N[C@H](CCCNC(=N)N)C(=O)N[C@@H](CCCNC(=N)N)C(=O)N[C@@H](CCCNC(=N)N)C(=O)N1CCC[C@H]1C(=O)O [Peptide A6] (H-AAAAAA[dR]RRP-OH)	256

Dear colleague, I am looking for the recorded MIC, E. coli 078 of the following compound: CCCCCCCCCCCCCC(=O)N[C@H](CCCNC(=N)N)C(=O)N[C@@H](CCCNC(=N)N)C(=O)N[C@@H](CCCNC(=N)N)C(=O)N1CCC[C@H]1C(=O)O [Peptide C14] (Myristoyl-[dR]RRP-OH)
64

Same question, CCCCCC(N)C(=O)NC(CCCCC)C(=O)NC(CCCCC)C(=O)N[C@H](CCCNC(=N)N)C(=O)N[C@@H](CCCNC(=N)N)C(=O)N[C@@H](CCCNC(=N)N)C(=O)N1CCC[C@H]1C(=O)O (stereo partly shown) [Peptide B3] (H-[ξAhp(2)][ξAhp(2)][ξAhp(2)][dR]RRP-OH; N-terminus assumed) this time
256

Try this compound too: N=C(N)NCCC[C@H](NC(=O)[C@H](Cc1ccc2ccccc2c1)NC(=O)[C@H](Cc1ccc2ccccc2c1)NC(=O)[C@H](Cc1ccc2ccccc2c1)NC(=O)[C@H](Cc1ccc2ccccc2c1)NC(=O)[C@H](Cc1ccc2ccccc2c1)NC(=O)[C@@H](N)Cc1ccc2ccccc2c1)C(=O)N[C@H](CCCNC(=N)N)C(=O)N[C@@H](CCCNC(=N)N)C(=O)N1CCC[C@H]1C(=O)O [Peptide N6] (H-[2Nal][2Nal][2Nal][2Nal][2Nal][2Nal]R[dR]RP-OH)
256

* * *

Test system: S. epidermidis 12228
Format: cell-based, Staphylococcus epidermidis
Non-standard residues stand in square brackets, D forms with d. Residues, ends and D or L forms follow the SMILES beside them. *: point of attachment. 1Naphthoyl = O=C(c1cccc2ccccc12)*; Ahp(2) = CCCCC[C@H](N)C(=O)O
parameter: MIC, S. epidermidis 12228 (µM)
The answer is to be given in µM; state only the numeric part.

Examples with answers:
1) CCCCC[C@H](NC(=O)[C@H](CCCCC)NC(=O)[C@H](CCCCC)NC(=O)[C@@H](N)CCCCC)C(=O)N[C@@H](CCCCC)C(=O)N[C@@H](CCCCC)C(=O)N[C@H](CCCNC(=N)N)C(=O)N[C@@H](CCCNC(=N)N)C(=O)N[C@@H](CCCNC(=N)N)C(=O)N1CCC[C@H]1C(=O)O [Peptide B6] (H-[Ahp(2)][Ahp(2)][Ahp(2)][Ahp(2)][Ahp(2)][Ahp(2)][dR]RRP-OH; N-terminus and C-terminus assumed)	256
2) C[C@H](N)C(=O)N[C@@H](C)C(=O)N[C@@H](C)C(=O)N[C@@H](C)C(=O)N[C@H](CCCNC(=N)N)C(=O)N[C@@H](CCCNC(=N)N)C(=O)N[C@@H](CCCNC(=N)N)C(=O)N1CCC[C@H]1C(=O)O [Peptide A4] (H-AAAA[dR]RRP-OH)	256

I'd like to know its MIC, S. epidermidis 12228. The molecule in question is N=C(N)NCCC[C@H](NC(=O)c1cccc2ccccc12)C(=O)N[C@H](CCCNC(=N)N)C(=O)N[C@@H](CCCNC(=N)N)C(=O)N1CCC[C@H]1C(=O)O [Nap] (1Naphthoyl-R[dR]RP-OH)
256

* * *

Test system: MRSA 43300
Format: cell-based, Methicillin-Resistant Staphylococcus aureus
Non-standard residues stand in square brackets, D forms with d. Residues, ends and D or L forms follow the SMILES beside them. ξ: configuration not given here. *: point of attachment. Palmitoyl = CCCCCCCCCCCCCCCC(=O)*; ξAhp(2) = CCCCCC(N)C(=O)O
parameter: MIC, MRSA 43300 (µM)
Just the number please, in µM, no unit attached.

Tell me the measured MIC, MRSA 43300 of CCCCCC(N)C(=O)NC(CCCCC)C(=O)NC(CCCCC)C(=O)N[C@H](CCCNC(=N)N)C(=O)N[C@@H](CCCNC(=N)N)C(=O)N[C@@H](CCCNC(=N)N)C(=O)N1CCC[C@H]1C(=O)O (stereo partly shown) [Peptide B3] (H-[ξAhp(2)][ξAhp(2)][ξAhp(2)][dR]RRP-OH; N-terminus assumed) , please.
256

Now consider N=C(N)NCCC[C@H](NC(=O)[C@@H](CCCNC(=N)N)NC(=O)[C@H](Cc1cccc2ccccc12)NC(=O)[C@H](Cc1cccc2ccccc12)NC(=O)[C@H](Cc1cccc2ccccc12)NC(=O)[C@@H](N)Cc1cccc2ccccc12)C(=O)N[C@@H](CCCNC(=N)N)C(=O)N1CCC[C@H]1C(=O)O (stereo in doubt) [Peptide N4] .
4

Proceed to CCCCCCCCCCCCCCCC(=O)N[C@H](CCCNC(=N)N)C(=O)N[C@@H](CCCNC(=N)N)C(=O)N[C@@H](CCCNC(=N)N)C(=O)N1CCC[C@H]1C(=O)O [Peptide C16] (Palmitoyl-[dR]RRP-OH)
32

* * *

System: E. coli 078
Type: cell-based, Escherichia coli
Non-standard residues stand in square brackets, D forms with d. Residues, ends and D or L forms follow the SMILES beside them. ξ: configuration not given here. *: point of attachment. Ahp(2) = CCCCC[C@H](N)C(=O)O; Lauroyl = CCCCCCCCCCCC(=O)*; ξAhp(2) = CCCCCC(N)C(=O)O
parameter: MIC, E. coli 078

# query: MIC, E. coli 078 | item CCCCC[C@H](NC(=O)[C@H](CCCCC)NC(=O)[C@H](CCCCC)NC(=O)[C@@H](N)CCCCC)C(=O)N[C@@H](CCCCC)C(=O)N[C@@H](CCCCC)C(=O)N[C@H](CCCNC(=N)N)C(=O)N[C@@H](CCCNC(=N)N)C(=O)N[C@@H](CCCNC(=N)N)C(=O)N1CCC[C@H]1C(=O)O [Peptide B6] (H-[Ahp(2)][Ahp(2)][Ahp(2)][Ahp(2)][Ahp(2)][Ahp(2)][dR]RRP-OH; N-terminus and C-terminus assumed) | system: E. coli 078
256 µM

What about CCCCCCCCCCCC(=O)N[C@H](CCCNC(=N)N)C(=O)N[C@@H](CCCNC(=N)N)C(=O)N[C@@H](CCCNC(=N)N)C(=O)N1CCC[C@H]1C(=O)O [Peptide C12] (Lauroyl-[dR]RRP-OH) ?
128 µM

Try this molecule too: CCCCCC(N)C(=O)NC(CCCCC)C(=O)NC(CCCCC)C(=O)NC(CCCCC)C(=O)NC(CCCCC)C(=O)N[C@H](CCCNC(=N)N)C(=O)N[C@@H](CCCNC(=N)N)C(=O)N[C@@H](CCCNC(=N)N)C(=O)N1CCC[C@H]1C(=O)O (some centres unmarked) [Peptide B5] (H-[ξAhp(2)][ξAhp(2)][ξAhp(2)][ξAhp(2)][ξAhp(2)][dR]RRP-OH; N-terminus assumed)
256 µM

Next: C[C@H](N)C(=O)N[C@@H](C)C(=O)N[C@@H](C)C(=O)N[C@@H](C)C(=O)N[C@@H](C)C(=O)N[C@H](CCCNC(=N)N)C(=O)N[C@@H](CCCNC(=N)N)C(=O)N[C@@H](CCCNC(=N)N)C(=O)N1CCC[C@H]1C(=O)O [Peptide A5] (H-AAAAA[dR]RRP-OH)
256 µM

Proceed to CCCCCC(N)C(=O)NC(CCCCC)C(=O)NC(CCCCC)C(=O)NC(CCCCC)C(=O)N[C@H](CCCNC(=N)N)C(=O)N[C@@H](CCCNC(=N)N)C(=O)N[C@@H](CCCNC(=N)N)C(=O)N1CCC[C@H]1C(=O)O (some centres unmarked) [Peptide B4] (H-[ξAhp(2)][ξAhp(2)][ξAhp(2)][ξAhp(2)][dR]RRP-OH; N-terminus assumed)
16 µM

* * *

Tested on: S. aureus 25923
Assay type: cell-based, Staphylococcus aureus
Non-standard residues stand in square brackets, D forms with d. Residues, ends and D or L forms follow the SMILES beside them. *: point of attachment. 2Nal = N[C@@H](Cc1ccc2ccccc2c1)C(=O)O; 1Naphthoyl = O=C(c1cccc2ccccc12)*
Parameter MIC, S. aureus 25923: see the listing below.
Give the value, in units of µM, as a plain number.

1) N=C(N)NCCC[C@H](NC(=O)[C@H](Cc1ccc2ccccc2c1)NC(=O)[C@H](Cc1ccc2ccccc2c1)NC(=O)[C@H](Cc1ccc2ccccc2c1)NC(=O)[C@H](Cc1ccc2ccccc2c1)NC(=O)[C@H](Cc1ccc2ccccc2c1)NC(=O)[C@@H](N)Cc1ccc2ccccc2c1)C(=O)N[C@H](CCCNC(=N)N)C(=O)N[C@@H](CCCNC(=N)N)C(=O)N1CCC[C@H]1C(=O)O [Peptide N6] (H-[2Nal][2Nal][2Nal][2Nal][2Nal][2Nal]R[dR]RP-OH)	256

What measured MIC, S. aureus 25923 goes with N=C(N)NCCC[C@H](NC(=O)c1cccc2ccccc12)C(=O)N[C@H](CCCNC(=N)N)C(=O)N[C@@H](CCCNC(=N)N)C(=O)N1CCC[C@H]1C(=O)O [Nap] (1Naphthoyl-R[dR]RP-OH) ?
256

All values here come from paper PMC12677699.
